- System: HCC-2998 colon
- experimental_protocol: NCI tumour cell line growth inhibition, 48 h
assay_metric: TGI (µM)
Express it in µM; write the number only.

Exercise: Given the compound CCN1CCN(c2nc(C)cc(N(CCCNc3ccnc4cc(Cl)ccc34)Cc3ccc4c(c3)OCO4)n2)CC1 , write its reported TGI.
Key: 3.85

Exercise: Determine from records and report TGI for CCCCN(CCCC)C(=O)[C@H](CC)[C@@H]1CC[C@@H](C)[C@@H]([C@H](C)[C@@H](O)[C@@H](C)C(=O)[C@H](CC)C2O[C@]3(C=C[C@@H](O)[C@]4(CC[C@@](C)([C@H]5CC[C@](O)(CC)[C@H](C)O5)O4)O3)[C@H](C)C[C@@H]2C)O1 (stereo partly drawn)
Key: 5.04

Exercise: Give the value of TGI reported for the following: CS(=O)(=O)N1CC(CCl)c2ccc(NO)cc21 (stereo not drawn)
Key: 28.5

Exercise: Respond only with TGI recorded for CC(C)=CCc1cc2c(cc1O)C1=C(C(=O)C3=C(C1=O)S(=O)(=O)CCN3)C(C=C(C)C)O2 (stereo not drawn)
Key: 3.84

This collection of values is drawn from PubChem BioAssay (NCI).
